Provenance of the data: patent US20120321591A1

target: T1, recombinant human VEGF165 (human, UniProt P15692-4 27-191); assay: competition ELISA: VEGF165 binding to coated VEGFR2/Fc
T1 construct: also called rhVEGF165
T1 sequence (P15692 other isoform, or with tags, fused parts or gaps limits assumed): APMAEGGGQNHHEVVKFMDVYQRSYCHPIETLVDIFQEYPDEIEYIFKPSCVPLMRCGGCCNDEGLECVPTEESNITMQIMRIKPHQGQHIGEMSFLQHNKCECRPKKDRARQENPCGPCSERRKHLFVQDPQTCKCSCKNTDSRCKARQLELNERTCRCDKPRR
Bridges are numbered along the chain shown (N, C = ends).
value.type: pIC50
Please keep in mind that pIC50 is minus log10 of the molar concentration; only the number is needed.

Worked examples follow.
                                     binder  measured_number
0  Ac-VEPNCDIHVMWVWECFERLFKEA-NH2 (disulfide 5-15 (inferred)) [[VEGF-Peptide] SEQ ID NO:53]             7.50
1  Ac-VEPNCDIHVMWVWECFERLYGPW-NH2 (disulfide 5-15 (inferred)) [[VEGF-Peptide] SEQ ID NO:66]             7.73
2  Ac-VEPNCDIHVMWVWECFERLYGPF-NH2 (disulfide 5-15 (inferred)) [[VEGF-Peptide] SEQ ID NO:77]             8.74

Prompt: // pIC50 lookup, key: Ac-VEPNCDIHVMWVWECFERLYGLE-NH2 (disulfide 5-15 (inferred)) [[VEGF-Peptide] SEQ ID NO:75]
Response: 8.52

Prompt: Follow-up item: Ac-VEPNCDIHVMWVWECFERLYGG-NH2 (disulfide 5-15 (inferred)) [[VEGF-Peptide] SEQ ID NO:52]
Response: 7.49

Prompt: Next record, please: Ac-VEPNCDIHVMWVWECFERLIK-NH2 (disulfide 5-15 (inferred)) [[VEGF-Peptide] SEQ ID NO:57]
Response: 7.60
